Where these numbers come from: patent US10138227B2

biological target: CFTR ΔF508 mutant (Homo sapiens, UniProt P13569, DEL508-508); test: YFP-halide influx assay for the CFTR-ΔF508 mutation; conditions: CFBE41o- cells expressing CFTR ΔF508 and YFP reporter; forskolin 10.67 μM; (1-F/F0) vs concentration
Sequence (P13569 with tags, fused parts or gaps DEL508-508): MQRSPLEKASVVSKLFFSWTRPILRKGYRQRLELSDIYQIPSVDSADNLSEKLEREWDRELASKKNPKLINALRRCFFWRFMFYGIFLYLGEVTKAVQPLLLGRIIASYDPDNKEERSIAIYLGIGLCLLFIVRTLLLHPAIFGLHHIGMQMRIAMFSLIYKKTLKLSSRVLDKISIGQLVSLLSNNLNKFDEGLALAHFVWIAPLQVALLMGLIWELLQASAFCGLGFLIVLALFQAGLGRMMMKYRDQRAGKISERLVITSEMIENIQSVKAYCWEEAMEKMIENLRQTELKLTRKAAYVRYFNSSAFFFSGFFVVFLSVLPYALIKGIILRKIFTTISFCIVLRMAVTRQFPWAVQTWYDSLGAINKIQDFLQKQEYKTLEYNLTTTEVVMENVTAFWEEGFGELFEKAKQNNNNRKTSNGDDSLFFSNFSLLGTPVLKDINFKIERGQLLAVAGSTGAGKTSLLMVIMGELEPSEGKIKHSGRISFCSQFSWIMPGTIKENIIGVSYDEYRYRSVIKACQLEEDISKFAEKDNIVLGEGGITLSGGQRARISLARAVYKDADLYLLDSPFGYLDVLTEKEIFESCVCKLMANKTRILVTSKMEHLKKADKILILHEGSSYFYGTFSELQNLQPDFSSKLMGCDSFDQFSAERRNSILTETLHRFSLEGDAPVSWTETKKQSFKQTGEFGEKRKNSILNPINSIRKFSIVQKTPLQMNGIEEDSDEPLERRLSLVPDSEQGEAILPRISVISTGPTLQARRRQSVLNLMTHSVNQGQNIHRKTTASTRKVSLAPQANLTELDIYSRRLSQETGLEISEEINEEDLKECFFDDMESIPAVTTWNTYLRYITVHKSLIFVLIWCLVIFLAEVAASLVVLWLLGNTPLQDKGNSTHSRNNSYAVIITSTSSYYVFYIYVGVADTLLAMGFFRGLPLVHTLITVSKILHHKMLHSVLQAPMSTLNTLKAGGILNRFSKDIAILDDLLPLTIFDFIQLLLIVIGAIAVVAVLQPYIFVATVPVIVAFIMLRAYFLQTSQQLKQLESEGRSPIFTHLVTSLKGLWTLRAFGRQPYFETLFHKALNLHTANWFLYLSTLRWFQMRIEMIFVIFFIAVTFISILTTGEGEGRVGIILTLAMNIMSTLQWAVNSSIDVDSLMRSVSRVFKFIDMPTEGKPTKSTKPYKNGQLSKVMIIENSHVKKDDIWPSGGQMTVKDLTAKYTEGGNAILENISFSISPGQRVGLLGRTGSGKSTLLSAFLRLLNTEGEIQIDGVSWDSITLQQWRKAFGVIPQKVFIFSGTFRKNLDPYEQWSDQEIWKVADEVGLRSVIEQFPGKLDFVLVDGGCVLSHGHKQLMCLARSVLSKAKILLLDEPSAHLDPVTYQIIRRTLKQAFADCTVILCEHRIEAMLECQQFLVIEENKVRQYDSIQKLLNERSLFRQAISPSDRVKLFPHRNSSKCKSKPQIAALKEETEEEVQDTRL
pEC50: −log10 of the molar value.
pEC50 values by entry

[
  {
    "molecule": "Nc1cc(S(=O)(=O)c2ccc(OC(F)(F)F)cc2)cnc1-c1nc(CC2CCCO2)no1 (stereo not shown) [Compound 51]",
    "pEC50": "< 5.48"
  },
  {
    "molecule": "Nc1cc(S(=O)(=O)c2ccc(C(F)(F)F)cc2)cnc1-c1nnc(CO)s1 [Compound 62]",
    "pEC50": "> 9.36"
  },
  {
    "molecule": "Nc1cc(S(=O)(=O)c2ccc(OC(F)(F)F)cc2)cnc1-c1ncc(CO)s1 [Compound 5]",
    "pEC50": "< 6.18"
  },
  {
    "molecule": "Nc1cc(S(=O)(=O)c2ccc(OC(F)(F)F)cc2)cnc1-c1nc(COc2ccc(F)cc2)no1 [Compound 49]",
    "pEC50": "< 5.48"
  }
]
